Data credit: patent US20050215544A1

- Test system: HIV-1 LAI
- procedure.details: Two-drug combination antiviral assay with Compound 1 (combination indices, Chou and Rideout)
- Format: cell-based
- recorded.conditions: combination with Compound 1; EC50 ratio 1:2.5 (Compound 1 to comparator); 95% CI in parenthesis
observation.type: Combination Indices at 90% HIV Inhibition (Confidence Interval)

INSERT INTO results (compound, test_value) VALUES
  ('COC(=O)N[C@H](C(=O)N[C@@H](Cc1ccccc1)[C@@H](O)CN(Cc1ccc(-c2ccccn2)cc1)NC(=O)[C@@H](NC(=O)OC)C(C)(C)C)C(C)(C)C [Atazanavir]', '0.54 (0.42, 0.66)'),
  ('Cc1cn([C@H]2C[C@H](N=[N+]=[N-])[C@@H](CO)O2)c(=O)[nH]c1=O [Zidovudine]', '0.45 (0.22, 0.68)'),
  ('Cc1c(O)cccc1C(=O)N[C@@H](CSc1ccccc1)[C@H](O)CN1C[C@H]2CCCC[C@H]2C[C@H]1C(=O)NC(C)(C)C [Nelfinavir]', '1.43 (0.89, 1.97)'),
  ('Nc1ccn([C@H]2CC[C@@H](CO)O2)c(=O)n1 [Zalcitabine]', '0.42 (0.24, 0.61)');
